- Test system: Bacillus spizizenii
- Protocol description: Antibacterial activity against Bacillus subtilis ATCC 6633 by micro broth dilution method
- Format: functional
Measurement label: MIC (µg/mL)
Express the result in µg/mL but write the number alone.

Return MIC for the following compound: CCCCCCCCCCn1c(CN2CCN(c3cc4c(cc3F)c(=O)c(C(=O)O)cn4C3CC3)CC2)nc2ccccc21
64

Return MIC for the following compound: CCn1cc(C(=O)O)c(=O)c2cc(F)c(N3CCN(Cc4nc5ccccc5n4Cc4ccccc4F)CC3)cc21
128

Return MIC for the following compound: CCCCCCCCCCCCn1c(CN2CCN(c3cc4c(cc3F)c(=O)c(C(=O)O)cn4CC)CC2)nc2ccccc21
128

Return MIC for the following compound: CCCCCCCCCCn1c(CN2CCN(c3cc4c(cc3F)c(=O)c(C(=O)O)cn4CC)CC2)nc2ccccc21
4

Return MIC for the following compound: O=C(O)c1cn(C2CC2)c2cc(N3CCN(Cc4nc5ccccc5n4Cc4ccc(F)cc4)CC3)c(F)cc2c1=O
8

Return MIC for the following compound: O=C(O)c1cn(C2CC2)c2cc(N3CCN(CCc4nc5ccccc5[nH]4)CC3)c(F)cc2c1=O
128

Return MIC for the following compound: O=C(O)c1cn(C2CC2)c2cc(N3CCN(Cc4nc5ccccc5n4Cc4cccc(F)c4)CC3)c(F)cc2c1=O
32

Return MIC for the following compound: CCCCCCCCCCCCCCCCCCn1c(CN2CCN(c3cc4c(cc3F)c(=O)c(C(=O)O)cn4CC)CC2)nc2ccccc21
128
